System: Escherichia coli ATCC 25922
ASSAY_INFO: MIC, broth microdilution (CLSI), reference strain
EXPERIMENTAL_SETUP: CAMHB
Square brackets hold non-standard residues; d marks the D form. Peptide text beside a SMILES is read from it. Pro(trans-4-F) = O=C(O)[C@@H]1C[C@@H](F)CN1; Dab(3S-OH) = NC[C@H](O)[C@H](N)C(=O)O; Phe(2-Me) = Cc1ccccc1C[C@H](N)C(=O)O; ΔZArg = N=C(N)NCC/C=C(\N)C(=O)O; dOrn = NCCC[C@@H](N)C(=O)O
VALUE_TYPE: Ec: MIC Escherichia coli ATCC 25922

{"COMPOUND": "Cc1ccccc1C[C@H](NC(=O)[C@@H]1CCCN1C(=O)[C@@H](CCCN)NC(=O)CNC(=O)[C@H](C)NC(=O)[C@@H](NC(=O)[C@@H](N)CCCCN)[C@@H](O)CN)C(=O)N[C@@H](CCCCN)C(=O)N/C(=C\\CCNC(=N)N)C(=O)O [24.83] (H-K[Dab(3S-OH)]AG[dOrn]P[Phe(2-Me)]K[ΔZArg]-OH)", "VALUE_TYPE": "Ec: MIC Escherichia coli ATCC 25922", "ASSAY_RESULT": "+ (≤32 μg/mL)"}
{"COMPOUND": "C[C@H](NC(=O)[C@@H](NC(=O)[C@@H](N)CCCCN)[C@@H](O)CN)C(=O)NCC(=O)N[C@H](CCCN)C(=O)N1C[C@H](F)C[C@H]1C(=O)N[C@@H](Cc1cnc[nH]1)C(=O)N[C@@H](CCCCN)C(=O)N/C(=C\\CCNC(=N)N)C(=O)O [24.142] (H-K[Dab(3S-OH)]AG[dOrn][Pro(trans-4-F)]HK[ΔZArg]-OH)", "VALUE_TYPE": "Ec: MIC Escherichia coli ATCC 25922", "ASSAY_RESULT": "+ (≤32 μg/mL)"}
